Target: T1, recombinant human TIGIT (human, UniProt Q495A1 22-141, limits assumed)
T1 construct: recombinant human TIGIT used in Carterra SPR; also called hTIGIT
T1 sequence (looked up): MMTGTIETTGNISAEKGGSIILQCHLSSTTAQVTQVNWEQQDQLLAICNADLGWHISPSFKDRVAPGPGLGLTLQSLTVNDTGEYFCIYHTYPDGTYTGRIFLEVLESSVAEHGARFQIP
Assay: SPR Carterra, average
kon values by entry
endpoint: kon (M⁻¹ s⁻¹)

1) TIGIT-SC190 (Fc fusion, VHH-Fc fusion in assay) VHH: EVQLVESGGGLVQPGGSLRLSCAASGFTFDRSWMGWFRQAPGKEREWVASVLRGGYTWYADSVKGRFTISADNSKNTAYLQMNSLKPEDTAVYYCVTDVGAPDYWGQGTLVTVSS | 78400
2) TIGIT-SC141 (Fc fusion, VHH-Fc fusion in assay) VHH: EVQLVESGGGLVQPGGSLRLSCAASGNAFSSSVMGWFRQAPGKEREFVAGIWRSGSLKAYADSVKGRFTISADNSKNTAYLQMNSLRPEDTAVYYCARAYVGMTTVTFDHWGQGTLVTVSS | 167000
3) TIGIT-SC146 (Fc fusion, VHH-Fc fusion in assay) VHH: EVQLVESGGGLVQPGGGLRLSCAASGFTLENNMMGWFRQAPGKEREFVAAISASGTLRAYADSVKGRFTISADNSKNTAYLQMNSLKPEDTAVYYCAKGGQAGPMAFYFDYWGQGTLVTVSS | 226000
4) TIGIT-SC42 (Fc fusion, VHH-Fc fusion in assay) VHH: EVQLVESGGGLVQPGGSLRLSCAASGNTFSGGFMGWFRQAPGKEREWVATVLRGGYTWYADSVKGRFTISADNSKNTAYLQMNSLKPEDTAVYYCASGGFLASWGQGTLVTVSS | 141000
5) TIGIT-SC105 (Fc fusion, VHH-Fc fusion in assay) VHH: EVQLVESGGGLVQPGGSLRLSCAASGFAFSRYGMGWFRQAPGKERELVATIGWSGSSTFYADSVKGRFTISADNSKNTAYLQMNSLKPEDTAVYYCARDGGPYYYGLDVWGQGTLVTVSS | 61600
